- Test system: SF-295 CNS
- EXPERIMENT_SUMMARY: NCI tumour cell line growth inhibition, 48 h
GI50 for assorted compounds

Use the examples below as a reference point.
>>> reading("CC(C)C[C@H](NC(=O)CNC(=O)C[C@H]1O[C@@H]2OC3(C)CC[C@H]4[C@H](C)CC[C@@H]([C@H]1C)[C@@]24OO3)B(O)O")
"2170 nM"
>>> reading("Cc1ccc([N+](=O)[O-])c(C(=O)Nc2ccc(-c3ccc4c(c3)NC(=O)/C4=C\\c3ccc[nH]3)cc2)c1")
"29200 nM"
>>> reading("Cc1ccc(-c2nc3ccc(C(=O)N=Nc4c(O)[nH]c5ccc(Cl)cc45)cc3[nH]2)cc1")
"> 100000 nM"

Moving on to the next compound.
Sample O=C(/C=C/c1ccc(F)cc1)c1nc2ccccc2n1Cc1ccc(F)cc1 — what was its GI50? 2590 nM

====

- Test system: HCT-116 colon
- EXPERIMENT_SUMMARY: NCI tumour cell line growth inhibition, 48 h
ASSAY_READOUT: TGI

Worked set:
>>> reading("Cc1ccc(-c2nc3ccc(C(=O)N=Nc4c(O)[nH]c5ccc(Cl)cc45)cc3[nH]2)cc1")
"> 100 µM"
>>> reading("CC(C)C[C@H](NC(=O)CNC(=O)C[C@H]1O[C@@H]2OC3(C)CC[C@H]4[C@H](C)CC[C@@H]([C@H]1C)[C@@]24OO3)B(O)O")
"1.75 µM"

Name the reported TGI value associated with the molecule Cn1cc(-c2cc(N)n3nc(-c4c[nH]c5ccc(Br)cc45)cc3n2)c2cc(Br)cnc21 4.25 µM

What does the data say about its TGI? Entry: Cc1ccc([N+](=O)[O-])c(C(=O)Nc2ccc(-c3ccc4c(c3)NC(=O)/C4=C\c3ccc[nH]3)cc2)c1 > 100 µM

For O=C(/C=C/c1ccc(F)cc1)c1nc2ccccc2n1Cc1ccc(F)cc1 , what is its reported TGI? 4.46 µM

Just for reference, PubChem BioAssay (NCI) is where these values come from.
